Sourced from ChEMBL document CHEMBL1148529

- experimental.target: Human rhinovirus A protease (Human rhinovirus sp., UniProt Q4U254)
- Sequence (Q4U254 whole entry): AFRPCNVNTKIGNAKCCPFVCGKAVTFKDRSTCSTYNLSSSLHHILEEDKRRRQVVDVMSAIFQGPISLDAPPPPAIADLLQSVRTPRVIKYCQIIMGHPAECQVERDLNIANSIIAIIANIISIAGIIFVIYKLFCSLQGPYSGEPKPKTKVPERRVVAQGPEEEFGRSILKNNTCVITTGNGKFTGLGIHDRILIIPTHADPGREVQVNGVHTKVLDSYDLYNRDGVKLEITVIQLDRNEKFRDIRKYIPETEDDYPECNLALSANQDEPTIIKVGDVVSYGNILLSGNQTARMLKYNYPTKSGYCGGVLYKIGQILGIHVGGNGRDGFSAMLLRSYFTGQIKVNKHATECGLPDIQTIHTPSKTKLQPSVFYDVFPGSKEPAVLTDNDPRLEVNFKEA
quantity.kind: IC50 (nM)
# value in nM; strip the unit string

Request: Find the measured IC50 of "NC(=O)c1ccc2c(c1)C(=O)C(=O)N2Cc1ccc2ccccc2c1" and report it.
Response: 4

* * *

For each of the compounds below, state its inhibition.
- experimental.target: Replicase polyprotein 1a (Severe acute respiratory syndrome-related coronavirus)
- experiment: Inhibition of SARS CoV 3C-like protease at 100 uM

Request: Check Replicase polyprotein 1a (Severe acute respiratory syndrome-related coronavirus) data and give inhibition for "O=C(O)c1ccc2c(c1)C(=O)C(=O)N2Cc1ccc2ccccc2c1" .
Response: 46%

Request: Report its inhibition with Replicase polyprotein 1a (Severe acute respiratory syndrome-related coronavirus) as the test system: "O=C1Nc2ccc(I)cc2C1=O"
Response: < 25%

Request: Report inhibition on Replicase polyprotein 1a (Severe acute respiratory syndrome-related coronavirus) for this entry: "NC(=O)c1ccc2c(c1)C(=O)C(=O)N2"
Response: < 25%

Request: State the measured inhibition (Replicase polyprotein 1a (Severe acute respiratory syndrome-related coronavirus)) of "CCCN1C(=O)C(=O)c2cc(C(=O)OC)ccc21"
Response: < 25%

Request: Jot down inhibition (Replicase polyprotein 1a (Severe acute respiratory syndrome-related coronavirus)) of "CCCCN1C(=O)C(=O)c2cc(C(=O)O)ccc21" .
Response: < 25%

Request: Report inhibition on Replicase polyprotein 1a (Severe acute respiratory syndrome-related coronavirus) for this entry: "CCCN1C(=O)C(=O)c2cc(C(=O)O)ccc21"
Response: < 25%

Request: Retrieve inhibition on Replicase polyprotein 1a (Severe acute respiratory syndrome-related coronavirus); query "CN1C(=O)C(=O)c2cc(C(=O)O)ccc21"
Response: < 25%

Request: Give inhibition for this entry on Replicase polyprotein 1a (Severe acute respiratory syndrome-related coronavirus): "O=C(O)c1ccc2c(c1)C(=O)C(=O)N2Cc1ccccc1"
Response: < 25%

Request: Give inhibition; test system Replicase polyprotein 1a (Severe acute respiratory syndrome-related coronavirus); compound "O=C1Nc2ccc(C(=O)O)cc2C1=O"
Response: < 25%

Request: State the measured inhibition (Replicase polyprotein 1a (Severe acute respiratory syndrome-related coronavirus)) of "CCCCN1C(=O)C(=O)c2cc(C(=O)OC)ccc21"
Response: < 25%

Request: Specify inhibition for "COC(=O)c1ccc2c(c1)C(=O)C(=O)N2Cc1ccccc1" , system Replicase polyprotein 1a (Severe acute respiratory syndrome-related coronavirus).
Response: < 25%

Request: Under Replicase polyprotein 1a (Severe acute respiratory syndrome-related coronavirus): report inhibition of "COC(=O)c1ccc2c(c1)C(=O)C(=O)N2Cc1ccc2ccccc2c1" .
Response: < 25%

Request: Enter recorded inhibition with Replicase polyprotein 1a (Severe acute respiratory syndrome-related coronavirus) for "CN1C(=O)C(=O)c2cc(I)ccc21" here.
Response: < 25%

Request: Param request: inhibition | system Replicase polyprotein 1a (Severe acute respiratory syndrome-related coronavirus) | item "CCCN1C(=O)C(=O)c2cc(I)ccc21"
Response: 25%

Request: Find the measured inhibition of "COC(=O)c1ccc2c(c1)C(=O)C(=O)N2C" with Replicase polyprotein 1a (Severe acute respiratory syndrome-related coronavirus) as test system.
Response: < 25%
